- TARGET OF ASSAY: T1, human PD-L1 antigen (Beijing Sino Biological Inc, Catalog No. #10084-H08H-100) (human, UniProt Q9NZQ7 19-239)
- T1 construct: Bought antigen; also called the antigen
- T1 sequence (Q9NZQ7 19-239 limits assumed): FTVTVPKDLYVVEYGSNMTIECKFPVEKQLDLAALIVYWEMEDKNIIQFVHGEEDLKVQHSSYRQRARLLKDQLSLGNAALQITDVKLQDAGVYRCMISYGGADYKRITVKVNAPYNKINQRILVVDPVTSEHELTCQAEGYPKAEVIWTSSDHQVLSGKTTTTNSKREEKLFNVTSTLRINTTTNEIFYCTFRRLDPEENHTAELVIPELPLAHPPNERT
- TEST DESCRIPTION: BLI (ForteBIO Octet), antibody captured on sensor, human PD-L1 in solution
MEASUREMENT NAME: koff (s⁻¹)
Answer with a number only, understood to be in s⁻¹.

Prompt: I am curious: what koff value has been reported for Antibody II-HX-19 (antibody, human IgG4 S228P, kappa, V domains shown) VH: VQLVQSGAEVKKPGASVKVSCKASGYYTTSYVMHWVRQAPGQGLEWMGYINHFQDATKYNEKFKGRVTITSDKSASTAYMELSSLRSEDTAVYYCAWSGAIFEYWGQGTLVTVSS VL: TQSPSFLSASVGDRVTITCSASSSGYYMHWFQQKPGKSPKLWIYTTSNLASGVPARFSGSGSGTSYSLTISSLQPEDFATYYCQQRSSYPYTFGQGTKLEIKR ?
Response: 3.75e-06

Prompt: koff for Antibody II-HX-13 (antibody, human IgG4 S228P, kappa, V domains shown) VH: VQLVQSGAEVKKPGASVKVSCKASGYSFTSYVMHWVRQAPGQGLEWMGYINPYNDGTKYNEKFKGRVTITSDKSASTAYMELSSLRSEDTAVYYCARSIGITDYWGQGTLVTVSS VL: TQSPSFLSASVGDRVTITCSASSSISYMHWFQQKPGKSPKLWIYSTSNLASGVPARFSGSGSGTSYSLTISSLQPEDFATYYCQQRSSFPYTFGQGTKLEIKR ?
Response: 2.13e-06

Prompt: Tell me the measured koff of Antibody II-HX-11 (antibody, human IgG4 S228P, kappa, V domains shown) VH: VQLVQSGAEVKKPGASVKVSCKASGYYTSSPVMHWVRQAPGQGLEWMGYINYFYDGTKYNEKFKGRVTITSDKSASTAYMELSSLRSEDTAVYYCAKSAIAFEYWGQGTLVTVSS VL: TQSPSFLSASVGDRVTITCSASSTVYYMHWFQQKPGKSPKLWIYSTSNLASGVPARFSGSGSGTSYSLTISSLQPEDFATYYCQYRSSYWYTFGQGTKLEIKR , please.
Response: 7.71e-06
